pKi for the protein given by its sequence, merged from several publications.
Sequence of the target: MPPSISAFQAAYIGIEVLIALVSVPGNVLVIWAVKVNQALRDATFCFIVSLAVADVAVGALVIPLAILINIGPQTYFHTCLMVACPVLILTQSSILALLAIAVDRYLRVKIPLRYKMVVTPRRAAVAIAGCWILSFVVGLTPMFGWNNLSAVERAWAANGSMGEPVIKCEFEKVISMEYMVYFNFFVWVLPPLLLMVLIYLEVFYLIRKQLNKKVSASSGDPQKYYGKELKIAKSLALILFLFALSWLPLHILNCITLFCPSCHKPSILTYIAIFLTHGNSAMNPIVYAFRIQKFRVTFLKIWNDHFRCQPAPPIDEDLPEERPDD
In plain terms, pKi is the concentration in mol/L turned into minus its base-10 logarithm.

Below, each entry is followed by its recorded pKi result.
{"MOLECULE": "Nc1nc(C(=O)NCc2cccc3cccnc23)c2cc(Cl)cc(Cl)c2n1", "QUANTITY MEASURED": "pKi", "QUANTITATIVE RESULT": 7.30}
{"MOLECULE": "CC1CN2C(=O)N(Cc3ccccc3)c3nc(-c4cc(OCc5ccccc5)nn4C)[nH]c3C2=N1 (racemic)", "QUANTITY MEASURED": "pKi", "QUANTITATIVE RESULT": 5.59}
{"MOLECULE": "CCN(C(C)=O)c1ccc(OC)c2nc(NC(=O)[C@@H]3CC[C@H](NC(=O)c4cccc(C(F)(F)F)c4)C3)sc12", "QUANTITY MEASURED": "pKi", "QUANTITATIVE RESULT": 7.21}
{"MOLECULE": "COc1ccc(CNC(=O)c2cnc3nc(C)ccc3c2O)cc1", "QUANTITY MEASURED": "pKi", "QUANTITATIVE RESULT": 5.36}
{"MOLECULE": "CN(C)CCOc1cccc(-c2nc3c([nH]2)c(=O)n(C)c(=O)n3C)c1", "QUANTITY MEASURED": "pKi", "QUANTITATIVE RESULT": 6.10}

pKi lookup needed for COc1ccc(C(=O)Nc2nc(-c3ccccc3)c(C(=O)c3ccc(Cl)cc3)s2)cc1 , thanks. 7.49

What do you have for COc1ccc(CNc2ncc(C(=O)O)c3nc(-c4ccco4)nn23)cc1 ? 5.24

Try this molecule next: COc1ccccc1CCCc1nc(N)c2nn(-c3ccccc3)cc2n1 8.88

###

# pKi against UniProt:P30542, merged from multiple literature sources
- SYSTEM TESTED: UniProt:P30542
- Sequence (P30542 whole entry): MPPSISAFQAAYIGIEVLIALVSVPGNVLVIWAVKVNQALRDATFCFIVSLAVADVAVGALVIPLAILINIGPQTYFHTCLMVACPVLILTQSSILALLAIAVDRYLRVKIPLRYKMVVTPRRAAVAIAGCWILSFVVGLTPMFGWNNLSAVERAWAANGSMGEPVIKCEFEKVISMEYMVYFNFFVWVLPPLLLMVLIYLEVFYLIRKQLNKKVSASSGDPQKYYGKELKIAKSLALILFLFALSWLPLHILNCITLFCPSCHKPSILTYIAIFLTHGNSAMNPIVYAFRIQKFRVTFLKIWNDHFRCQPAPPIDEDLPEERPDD
Note on units: pKi is unitless, being -log10 of a concentration expressed in mol/L.

Here's what some known entries look like.
{"MOLECULE": "COCCN(C)c1cccc(-c2cc(NC(C)=O)nc(-n3nc(C)cc3C)n2)n1", "pKi": 7.26}
{"MOLECULE": "CCCC1C(=O)c2nc(CCN3N=C(c4ccccc4)CCC3=O)[nH]c2N(C)C1=O (stereo not given)", "pKi": 6.12}
{"MOLECULE": "CC(=O)Nc1cc(-c2ccc3c(c2)OCO3)cc(-c2ccc3c(c2)OCO3)n1", "pKi": 7.04}
{"MOLECULE": "CCNc1nc2nn(C)cc2c2nc(-c3ccco3)nn12", "pKi": 6.22}
{"MOLECULE": "COc1ccccc1-n1cc2nc(CCCc3ccccc3)nc(N)c2n1", "pKi": 7.31}

Dear colleague, I am looking for the recorded pKi of the following molecule: N#Cc1c(N)nc(NCCO)c(C#N)c1-c1cccs1 6.49

Next entry: CCn1nnc([C@H]2O[C@@H](n3cnc4c(N)nc(N[C@H](CO)Cc5ccc(Br)cc5)nc43)[C@H](O)[C@@H]2O)n1 6.51

CCN(CC)c1cc(NC(C)=O)nc(-n2nc(C)cc2C)n1 , same question. 5.35

###

Let's look at some Ki data for UniProtKB P30542 that I collected from the literature.
- SYSTEM TESTED: UniProtKB P30542
- Sequence (P30542 whole entry): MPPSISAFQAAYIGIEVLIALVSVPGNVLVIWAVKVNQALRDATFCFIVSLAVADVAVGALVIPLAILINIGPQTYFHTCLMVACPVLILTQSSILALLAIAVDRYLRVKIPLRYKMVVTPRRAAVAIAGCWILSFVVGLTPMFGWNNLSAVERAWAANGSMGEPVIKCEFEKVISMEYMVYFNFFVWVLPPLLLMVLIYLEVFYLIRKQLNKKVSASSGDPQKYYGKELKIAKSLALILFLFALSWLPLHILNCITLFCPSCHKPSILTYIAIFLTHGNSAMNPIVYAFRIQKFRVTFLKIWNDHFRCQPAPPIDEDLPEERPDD
// class assignment uses Ki with these ranges: lo (below 0.03 µM), mid (0.03 µM to below 0.7 µM), hi (0.7 µM or more)

{"COMPOUND": "CCn1nnc([C@H]2O[C@@H](n3cnc4c(N)nc(NC(C)Cc5ccc(Cl)cc5)nc43)[C@H](O)[C@@H]2O)n1 (mixture of isomers)", "ASSIGNED CATEGORY": "hi"}

Bin this entry: COc1ccc(C(=O)Nc2nc(-c3ccccc3)c(-c3nc(N)c4c(C)c(C)sc4n3)s2)cc1 hi

What about this compound? CC(=O)N1CCN(CC(=O)Nc2cc(-n3nc(C)cc3C)nc(-c3ccc(C)o3)n2)CC1 mid

Moving on to Cc1ccc(-n2cc3c(n2)c(=O)[nH]c2ccccc23)cc1 lo

Then Cn1c(-c2ccccc2F)nc2c(N)nc(C#CC3(O)CCCCC3)nc21 ? lo

Same question, Cn1cc2c(nc(NCC3CCCCC3)n3nc(-c4ccco4)nc23)n1 this time hi

###

Note to self: these compounds have pKi reported for the protein given by its sequence in various publications.
Target sequence: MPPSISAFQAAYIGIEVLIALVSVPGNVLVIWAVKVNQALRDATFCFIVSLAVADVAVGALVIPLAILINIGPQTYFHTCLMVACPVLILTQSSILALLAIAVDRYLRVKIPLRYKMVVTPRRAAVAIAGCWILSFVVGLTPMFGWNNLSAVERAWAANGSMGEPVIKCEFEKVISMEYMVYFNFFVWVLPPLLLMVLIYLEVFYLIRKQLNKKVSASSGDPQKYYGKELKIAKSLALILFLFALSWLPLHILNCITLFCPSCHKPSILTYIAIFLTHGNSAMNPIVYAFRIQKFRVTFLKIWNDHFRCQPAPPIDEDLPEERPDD
The meaning of pKi here: minus log10 of the concentration in molar units.

Consider the reported pKi for these compounds:
{"SMILES REPRESENTATION": "CCOC(=O)c1cnc(N2CCCCC2)n2nc(-c3ccco3)nc12", "SYSTEM TESTED": "the protein given by its sequence", "pKi": 5.05}
{"SMILES REPRESENTATION": "Cc1ccc(-c2nc3ccccn3c2NC2CCCCC2)cc1", "SYSTEM TESTED": "the protein given by its sequence", "pKi": 5.69}
{"SMILES REPRESENTATION": "Nc1nc(C(=O)NCc2cccc(F)c2)cc(-c2ccco2)n1", "SYSTEM TESTED": "the protein given by its sequence", "pKi": 7.41}

Can you share its pKi? I mean this compound: CN(C)C(=O)[C@H]1O[C@@H](n2cnc3c(NCc4cccc(I)c4)nc(Cl)nc32)[C@H](O)[C@@H]1O 5.23

###

Dear all, I have gathered published pKi values for the protein given by its sequence; the list follows.
Target protein (sequence): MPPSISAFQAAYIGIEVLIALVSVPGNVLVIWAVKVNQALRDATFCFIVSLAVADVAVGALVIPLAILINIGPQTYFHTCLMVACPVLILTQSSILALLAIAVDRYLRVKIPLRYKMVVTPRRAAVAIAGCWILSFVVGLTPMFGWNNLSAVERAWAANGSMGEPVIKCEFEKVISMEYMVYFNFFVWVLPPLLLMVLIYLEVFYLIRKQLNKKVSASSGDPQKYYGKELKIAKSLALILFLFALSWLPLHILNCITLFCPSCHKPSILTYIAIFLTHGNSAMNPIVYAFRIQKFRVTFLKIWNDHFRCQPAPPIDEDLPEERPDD
Keep in mind that pKi stands for -log10 of concentration in molar terms.

Consider the following illustrative entries.
{"SMILES REPRESENTATION": "O=C(Nc1ccc(-c2ccncc2F)c(-c2ccco2)n1)C1CC1", "SYSTEM TESTED": "the protein given by its sequence", "pKi": 6.43}
{"SMILES REPRESENTATION": "Nc1ncnc2cn(-c3ccccc3)nc12", "SYSTEM TESTED": "the protein given by its sequence", "pKi": 7.10}

pKi for CONc1nc2nn(C)cc2c2nc(-c3ccco3)nn12 ? 5.56

Queued: CCCn1c(=O)c2[nH]c(-c3ccc(OCC(=O)Nc4ccc(C(N)=O)cc4)cc3)nc2n(CCC)c1=O 6.79
